This listing pairs compounds with measured IC50.
Tested On: Calcium/calmodulin-dependent protein kinase kinase 2 (Homo sapiens, UniProt Q96RR4)
Sequence (Q96RR4 whole entry): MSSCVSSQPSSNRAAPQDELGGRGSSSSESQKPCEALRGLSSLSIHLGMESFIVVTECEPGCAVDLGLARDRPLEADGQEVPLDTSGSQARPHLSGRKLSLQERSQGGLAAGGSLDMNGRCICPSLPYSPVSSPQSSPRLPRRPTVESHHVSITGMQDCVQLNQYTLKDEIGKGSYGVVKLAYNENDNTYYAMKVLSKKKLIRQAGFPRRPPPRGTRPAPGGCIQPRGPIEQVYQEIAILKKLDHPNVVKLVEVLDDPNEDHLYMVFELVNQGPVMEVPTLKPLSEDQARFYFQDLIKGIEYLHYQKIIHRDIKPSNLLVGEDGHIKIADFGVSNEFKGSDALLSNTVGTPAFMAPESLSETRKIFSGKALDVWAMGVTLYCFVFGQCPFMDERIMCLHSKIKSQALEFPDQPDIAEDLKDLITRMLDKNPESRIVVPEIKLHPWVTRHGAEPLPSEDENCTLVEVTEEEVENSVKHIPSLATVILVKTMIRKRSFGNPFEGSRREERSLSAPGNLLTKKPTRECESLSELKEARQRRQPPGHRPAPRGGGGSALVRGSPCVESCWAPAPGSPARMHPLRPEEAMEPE
Test Details: Inhibition of full-length human GST-tagged CAMKK2 using 5FAM-AKPKGNKDYHLQTCCGSLAYRRR-amide as substrate preincubated for 30 mins followed by substrate addition measured after 120 mins by fluorescence polarization assay

The cases that follow already have their IC50 on record.
>  <Smiles Structure>
N#Cc1ccc2c(-c3ccc(C(=O)O)cc3)c[nH]c2n1

>  <Tested On>
Calcium/calmodulin-dependent protein kinase kinase 2 (Homo sapiens, UniProt Q96RR4)

>  <IC50>
2.51 to 10 µM

$$$$
>  <Smiles Structure>
NC(=O)c1ccc2c(-c3ccc(C(=O)O)c(C4CCCC4)c3)c[nH]c2n1

>  <Tested On>
Calcium/calmodulin-dependent protein kinase kinase 2 (Homo sapiens, UniProt Q96RR4)

>  <IC50>
1.26 to 10 µM

$$$$
>  <Smiles Structure>
COC(=O)c1ccc(-c2c[nH]c3ncc(-c4ccccc4)cc23)cc1

>  <Tested On>
Calcium/calmodulin-dependent protein kinase kinase 2 (Homo sapiens, UniProt Q96RR4)

>  <IC50>
1.26 µM

$$$$
>  <Smiles Structure>
Cc1cc(OCCN2CCOCC2)ccc1-c1cc2c(-c3ccc(C(N)=O)c(C(C)C)c3)ccnc2[nH]1

>  <Tested On>
Calcium/calmodulin-dependent protein kinase kinase 2 (Homo sapiens, UniProt Q96RR4)

>  <IC50>
0.000794 to 0.00794 µM

$$$$
>  <Smiles Structure>
N#Cc1ccc2c(-c3ccc(C(N)=O)c(C4CCCC4)c3)c[nH]c2n1

>  <Tested On>
Calcium/calmodulin-dependent protein kinase kinase 2 (Homo sapiens, UniProt Q96RR4)

>  <IC50>
1.26 to 10 µM

$$$$

Ask: // returns reported IC50 for input Cc1cc(CN2CCOCC2)ccc1-c1cc2c(-c3ccc(C(N)=O)cc3)ccnc2[nH]1
Reply: 0.00794 to 0.0251 µM

Ask: Try this compound too: COc1ccc(-c2ccccc2)cc1Nc1nccc(-c2ccc(C(N)=O)cc2)n1
Reply: 0.0126 to 0.251 µM

====

Test Details: Solubility of the compound in pH 7.4 phosphate buffer saline after 1 hr by chemiluminescence nitrogen detection method
Assay type: physicochemical
Condition: phosphate buffered saline
Quantity Measured: solubility at 1 h (µM)
Only the number, expressed in µM, is required.

The cases that follow already have their solubility at 1 h on record.
>  <Smiles Structure>
CN(C)Cc1cccc(-c2cc3c(-c4ccc(C(N)=O)cc4)ccnc3[nH]2)c1

>  <solubility at 1 h [µM]>
56

$$$$
>  <Smiles Structure>
N#Cc1ccc2c(-c3ccc(C(=O)O)c(C4CCCC4)c3)c[nH]c2n1

>  <solubility at 1 h [µM]>
155

$$$$
>  <Smiles Structure>
O=C(O)c1ccc(-c2ccnc(Nc3cccc(-c4ccccc4)c3)n2)cc1

>  <solubility at 1 h [µM]>
14

$$$$
>  <Smiles Structure>
c1ccc(-c2cnc3[nH]cc(-c4ccc(-c5nn[nH]n5)cc4)c3c2)cc1

>  <solubility at 1 h [µM]>
276

$$$$
>  <Smiles Structure>
Cc1c(CN2CCOCC2)cccc1-c1cc2c(-c3ccc(C(N)=O)cc3)ccnc2[nH]1

>  <solubility at 1 h [µM]>
18

$$$$

Ask: // returns reported solubility at 1 h for input COc1ccccc1Nc1nccc(-c2ccc(C(N)=O)c(C(C)C)c2)n1
Reply: 10

Ask: Try this compound too: Cc1ccc(CN2CCOCC2)cc1-c1cc2c(-c3ccc(C#N)cc3)ccnc2[nH]1
Reply: 2

Ask: Try this compound too: CS(=O)(=O)c1cccc(-c2cnc3[nH]cc(-c4ccc(C(=O)O)cc4)c3c2)c1
Reply: 177

Ask: Try this compound too: Cc1cc(-c2c[nH]c3ncc(-c4ccccc4)cc23)ccc1C(=O)O
Reply: 100

Ask: Try this compound too: Cc1ccc(-c2ccccc2)cc1Nc1nccc(-c2ccc(C(N)=O)cc2)n1
Reply: 4

Ask: Try this compound too: Cc1cc(OCCN2CCOCC2)ccc1-c1cc2c(-c3ccc(C(N)=O)c(C(C)C)c3)ccnc2[nH]1
Reply: 4

Ask: Try this compound too: Cc1ccc(OCCN2CCOCC2)cc1-c1cc2c(-c3ccc(C(N)=O)cc3)ccnc2[nH]1
Reply: 17

====

Tested On: Calcium/calmodulin-dependent protein kinase kinase 2 (Homo sapiens, UniProt Q96RR4)
Test Details: Inhibition of full-length human GST-tagged CAMKK2 using 5FAM-AKPKGNKDYHLQTCCGSLAYRRR-amide as substrate preincubated for 30 mins followed by substrate addition measured after 120 mins by fluorescence polarization assay
Quantity Measured: IC50

>  <Smiles Structure>
Cc1cc(OCCN2CCOCC2)ccc1-c1cc2c(-c3ccc(C(N)=O)cc3)ccnc2[nH]1

>  <IC50>
0.00158 µM

$$$$

Ask: // returns reported IC50 for input Cc1ccc(OCCN2CCOCC2)cc1-c1cc2c(-c3ccc(C(N)=O)cc3)ccnc2[nH]1
Reply: 0.002 to 0.0316 µM

Ask: Try this compound too: CS(=O)(=O)Nc1cccc(-c2cc3c(-c4ccc(C(N)=O)cc4)ccnc3[nH]2)c1
Reply: 0.00316 to 0.0126 µM

Ask: Try this compound too: Cc1ccc(CN2CCOCC2)cc1-c1cc2c(-c3ccc(C#N)cc3)ccnc2[nH]1
Reply: 0.0794 to 0.398 µM

Ask: Try this compound too: COc1ccccc1Nc1ncc(Cl)c(-c2ccc(C(N)=O)c(C(C)C)c2)n1
Reply: 0.158 to 1.58 µM

Ask: Try this compound too: CN(C)Cc1ccc(-c2cc3c(-c4ccc(C(N)=O)cc4)ccnc3[nH]2)cc1
Reply: 0.00316 to 0.0251 µM

Ask: Try this compound too: CC(C)c1cc(-c2c[nH]c3nc(C#N)ccc23)ccc1C(N)=O
Reply: 1.26 to 10 µM

====

Test Details: Solubility of the compound in pH 7.4 phosphate buffer saline after 1 hr by chemiluminescence nitrogen detection method
Assay type: physicochemical
Condition: phosphate buffered saline
This listing pairs molecules with measured solubility at 1 h.

The cases that follow already have their solubility at 1 h on record.
>  <Smiles Structure>
CC(C)c1cc(-c2c[nH]c3ncc(-c4ccccc4)cc23)ccc1C(=O)O

>  <Quantity Measured>
solubility at 1 h

>  <Value>
> 439 µM

$$$$
>  <Smiles Structure>
Cc1ccc2c(-c3ccc(C(=O)O)c(C4CCCC4)c3)c[nH]c2n1

>  <Quantity Measured>
solubility at 1 h

>  <Value>
> 279 µM

$$$$
>  <Smiles Structure>
NC(=O)c1ccc2c(-c3ccc(C(=O)O)c(C4CCCC4)c3)c[nH]c2n1

>  <Quantity Measured>
solubility at 1 h

>  <Value>
> 205 µM

$$$$

Would you kindly look at the next entry?
Ask: // returns reported solubility at 1 h for input O=C(O)c1ccc(-c2c[nH]c3ncccc23)cc1C1CCCC1
Reply: > 290 µM
